biological target: T1, human MSLN protein endogenously expressed on OVCAR3 tumor cells (human, UniProt Q13421 296-598); test: FACS on OVCAR3 cells
T1 construct: whole, on cells; Endogenous target on OVCAR3 cells; kept apart from the recombinant full-length construct; also called mesothelin
T1 sequence (Q13421 other isoform, or with tags, fused parts or gaps): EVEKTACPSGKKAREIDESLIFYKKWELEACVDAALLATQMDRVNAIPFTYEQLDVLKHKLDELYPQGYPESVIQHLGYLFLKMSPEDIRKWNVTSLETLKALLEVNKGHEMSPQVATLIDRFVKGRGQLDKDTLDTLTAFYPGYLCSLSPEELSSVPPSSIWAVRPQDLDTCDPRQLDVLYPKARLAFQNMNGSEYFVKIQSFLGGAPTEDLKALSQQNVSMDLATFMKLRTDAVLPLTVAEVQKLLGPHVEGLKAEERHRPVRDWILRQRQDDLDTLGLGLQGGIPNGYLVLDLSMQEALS
pEC50: −log10 of the molar value.
Property: pEC50

1) S009-F2.47.1 (antibody, human IgG1, kappa, V domains shown, human-murine chimeric antibody, human IgG1/kappa constant regions) VH: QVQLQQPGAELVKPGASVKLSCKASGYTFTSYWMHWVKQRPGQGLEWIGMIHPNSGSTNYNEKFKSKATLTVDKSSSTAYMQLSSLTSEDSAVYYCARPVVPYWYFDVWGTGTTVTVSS VL: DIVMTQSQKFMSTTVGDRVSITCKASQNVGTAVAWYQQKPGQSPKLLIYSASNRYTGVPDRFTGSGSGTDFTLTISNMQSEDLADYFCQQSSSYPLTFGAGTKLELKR	7.98
2) S009-F2.58.8 (antibody, human IgG1, kappa, V domains shown, human-murine chimeric antibody, human IgG1/kappa constant regions) VH: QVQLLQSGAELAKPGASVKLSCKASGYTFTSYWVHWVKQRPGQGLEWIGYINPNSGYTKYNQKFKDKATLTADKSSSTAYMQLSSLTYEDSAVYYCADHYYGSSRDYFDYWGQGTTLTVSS VL: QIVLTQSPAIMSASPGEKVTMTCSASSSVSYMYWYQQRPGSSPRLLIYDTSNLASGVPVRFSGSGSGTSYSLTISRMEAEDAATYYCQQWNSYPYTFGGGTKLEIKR	8.74
3) S009-F2.23.12 (antibody, human IgG1, kappa, V domains shown, human-murine chimeric antibody, human IgG1/kappa constant regions) VH: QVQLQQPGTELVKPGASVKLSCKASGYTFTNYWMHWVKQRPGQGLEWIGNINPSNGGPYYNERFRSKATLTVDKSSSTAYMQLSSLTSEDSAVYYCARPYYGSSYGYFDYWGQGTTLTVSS VL: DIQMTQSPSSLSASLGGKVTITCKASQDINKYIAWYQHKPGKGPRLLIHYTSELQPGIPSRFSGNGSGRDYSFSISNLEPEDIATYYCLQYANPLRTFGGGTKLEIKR	9.00
4) S009-F2.39.3 (antibody, human IgG1, kappa, V domains shown, human-murine chimeric antibody, human IgG1/kappa constant regions) VH: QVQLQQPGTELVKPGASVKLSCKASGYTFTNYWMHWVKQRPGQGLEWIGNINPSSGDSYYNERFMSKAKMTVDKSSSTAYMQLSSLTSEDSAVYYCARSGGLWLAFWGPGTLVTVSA VL: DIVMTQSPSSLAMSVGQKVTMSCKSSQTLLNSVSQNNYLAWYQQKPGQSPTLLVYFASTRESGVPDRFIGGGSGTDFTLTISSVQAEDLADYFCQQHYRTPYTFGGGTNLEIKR	8.26
5) S009-F2.13.3 (antibody, human IgG1, kappa, V domains shown, human-murine chimeric antibody, human IgG1/kappa constant regions) VH: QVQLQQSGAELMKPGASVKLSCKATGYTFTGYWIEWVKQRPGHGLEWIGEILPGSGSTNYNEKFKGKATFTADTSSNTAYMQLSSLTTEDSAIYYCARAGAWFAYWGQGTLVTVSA VL: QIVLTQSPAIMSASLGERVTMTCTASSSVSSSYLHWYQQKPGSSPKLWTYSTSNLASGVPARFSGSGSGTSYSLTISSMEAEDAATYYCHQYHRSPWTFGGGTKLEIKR	9.24
